- MEASUREMENT_TARGET: Acyl-protein thioesterase 1 (Homo sapiens, UniProt O75608)
- Sequence (O75608 whole entry): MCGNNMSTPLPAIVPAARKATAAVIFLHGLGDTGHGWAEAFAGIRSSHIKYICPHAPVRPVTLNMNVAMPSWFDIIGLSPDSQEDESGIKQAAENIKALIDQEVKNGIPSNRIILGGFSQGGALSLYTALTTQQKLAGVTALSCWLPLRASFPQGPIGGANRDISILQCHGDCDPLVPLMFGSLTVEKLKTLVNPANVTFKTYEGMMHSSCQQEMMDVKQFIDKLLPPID
- TEST_PROTOCOL: Inhibition of human APT1
pIC50: −log10 of the molar value.
Listing of entries alongside the reported pIC50.

Below, each entry is followed by its recorded pIC50 result.
O=C(N1CCCCC1)n1ncc(C(O)(c2ccccc2)c2ccccc2)n1 ... > 7.52
CCC1CCCCN1C(=O)n1ncc(C(O)(c2ccccc2)c2ccccc2)n1 (stereo not drawn) ... < 5.00

Field: next compound
Exercise: Fill blank: measured pIC50 of the compound `CC(C)(C)C1CCN(C(=O)n2ncc(C(O)(c3ccccc3)c3ccccc3)n2)CC1` is ____.
Key: 7.77
